- protocolText: chemical genetic growth profiling, strain panel (AID 1159580);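 also: tested at 20 µM; growth read once vehicle control cultures reached saturation at 30 °C; 1 = growth at the plate median or of vehicle wells; lower values mean less growth of the strain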
- testParameters: S. cerevisiae deletion strains, growth OD, locus YJL187C, strain SWE1 (second series), active compounds read low
In all, about 5,500 compounds went through this assay and about 2,000 (36%) were called active. Roughly 18% stayed inconclusive and do not appear here. This is one part of the list.
recordedEndpoint: normalized growth

1. NC(=O)c1ccc[n+]([C@@H]2O[C@H](COP(=O)([O-])OP(=O)(O)OC[C@H]3O[C@@H](n4cnc5c(N)ncnc54)[C@H](OP(=O)(O)O)[C@@H]3O)[C@@H](O)[C@H]2O)c1 : 1.03 (inactive)
2. O=C(O)/C=C/c1ccc(O)c(O)c1 : 1 (inactive)
3. c1ccc2c(c1)CCCC2C1=NCCN1 (centres undefined) : 1.02 (inactive)
4. CC(=O)S[C@@H]1CC2=CC(=O)CC[C@]2(C)[C@H]2CC[C@@]3(C)[C@@H](CC[C@@]34CCC(=O)O4)C12 (some centres undefined) : 1 (inactive)

---

- protocolText: chemical genetic growth profiling, strain panel (AID 1159580);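 also: tested at 20 µM; growth read once vehicle control cultures reached saturation at 30 °C; 1 = growth at the plate median or of vehicle wells; lower values mean less growth of the strain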
- testParameters: S. cerevisiae deletion strains, growth OD, locus YOR270C, strain vph1, active compounds read low
The whole screen tested about 5,500 compounds, of which about 2,000 (36%) were called active. About 18% were inconclusive and are not listed. The list shows a part of the results.
recordedEndpoint: normalized growth

1) c1ccc2c(c1)CCCC2C1=NCCN1 (stereo not drawn) : 1.07
2) COc1ccc(OC)c(C(O)CNC(=O)CN)c1 (stereo not drawn) : 1.03
3) COc1cc2nc(N(C)CCCNC(=O)C3CCCO3)nc(N)c2cc1OC (stereo not drawn) : 1.03
4) C#CCN(C)Cc1ccccc1 : 1.06
5) CCn1cc(C(=O)O)c(=O)c2cc(F)c(N3CCNCC3)nc21 : 0.991
6) Clc1ccc(C(c2ccc(Cl)cc2)C(Cl)(Cl)Cl)cc1 : 1.01
7) C=CCc1ccc(OC)cc1 : 1.04
8) COc1ccc(C(c2ccc(OC)cc2)C(Cl)(Cl)Cl)cc1 : 0.982
9) COc1ccc(C(CN(C)C)C2(O)CCCCC2)cc1 (stereo not drawn) : 0.945
10) COc1ccc(C(=O)CC(=O)O)c2c1C=CC(C)(C)O2 : 0.995
11) C=CCc1ccc(O)c(OC)c1 : 0.964
12) COc1ccc(C(=O)O)cc1OC : 1.02
13) CCN(CC)C(=O)N1CCN(C)CC1 : 0.965

---

- protocolText: chemical genetic growth profiling, strain panel (AID 1159580);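 also: tested at 20 µM; growth read once vehicle control cultures reached saturation at 30 °C; 1 = growth at the plate median or of vehicle wells; lower values mean less growth of the strain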
- testParameters: S. cerevisiae deletion strains, growth OD, locus YKR091W, strain srl3, active compounds read low
Screen size: about 5,500 compounds; about 2,000 (36%) were called active. Not shown: some 18% with an inconclusive outcome. This is one part of the list.
recordedEndpoint: normalized growth

1) COc1cc(CNC(=O)CCCC/C=C/C(C)C)ccc1O : 0.981
2) O=C(/C=C/c1ccc(O)c(O)c1)OCCc1ccccc1 : 0.928
3) O=C(/C=C/c1ccc(O)c(O)c1)OC(Cc1ccc(O)c(O)c1)C(=O)O (stereo unspecified) : 1.01
4) Cc1ccc(C(=O)Nc2ccc(S(=O)(=O)O)c3cc(S(=O)(=O)O)cc(S(=O)(=O)O)c23)cc1NC(=O)c1cccc(NC(=O)Nc2cccc(C(=O)Nc3cc(C(=O)Nc4ccc(S(=O)(=O)O)c5cc(S(=O)(=O)O)cc(S(=O)(=O)O)c45)ccc3C)c2)c1 : 1.01
5) Oc1cc(O)c2c(c1)O[C@H](c1ccc(O)c(O)c1)[C@@H](O)C2 : 1.01
6) COc1ccc2c(c1)OC/C(=C/c1ccc(OC)c(OC)c1)C2=O : 0.979
7) Nc1nc(=S)c2[nH]cnc2[nH]1 : 0.975
8) COC(=O)C[C@H]1C2(C)CC34OC5(C)O[C@@]6([C@H](OC)C(OC(=O)C(C)C)[C@]7(C)C(/C(=C(/OC)C(C)C)C(=O)O[C@H]7c7ccoc7)[C@@]6(O5)[C@H](OC)[C@@]3(OC)C2OC(C)=O)[C@]14C (stereo partly specified) : 0.984
9) Oc1cc(O)c2c(c1)O[C@H](c1ccc(O)c(O)c1)[C@H](O)C2 : 0.999
10) COC(=O)/C=C/C(C)=C/C=C/C(C)=C/C=C/C=C(C)/C=C/C=C(C)/C=C/C(=O)O : 1.02
11) Oc1ccc2c(c1)O[C@H](c1ccc(O)c(O)c1)[C@@H](O)C2 : 1.03
12) Oc1cc(O)c2c(c1)O[C@H](c1cc(O)c(O)c(O)c1)[C@H](O)C2 : 1.02
13) COC(=O)C[C@H]1C2(C)CC34OC5(C)O[C@@]6([C@H](OC(C)=O)C(OC(C)=O)[C@]7(C)C(/C(=C(/O)C(C)C)C(=O)O[C@H]7c7ccoc7)[C@@]6(O5)[C@H](OC(C)=O)[C@@]3(O)C2OC(=O)C(C)C)[C@]14C (stereo partly specified) : 0.996
14) N=c1ccn2c(n1)OC1C(O)C(CO)OC12 (stereo unspecified) : 1
15) CCCCCCCCCCC[C@@H](C[C@H]1OC(=O)[C@H]1CCCCCC)OC(=O)[C@@H](CC(C)C)NC=O : 1.05
16) COc1ccc(-c2coc3cc(O)ccc3c2=O)cc1 : 0.984
17) O=C(NC(=O)c1ccccc1Cl)Nc1ccc(OC(F)(F)F)cc1 : 1.03
18) COc1ccc2c(c1)OC/C(=C\c1ccc(OC)c(O)c1)C2=O : 0.962
19) O=c1c(-c2ccc(O)cc2)coc2cc(O)ccc12 : 0.982
20) CCC(C)C(=O)O[C@@H]1C[C@@]2(C)[C@H](c3ccoc3)OC(=O)CC23OC2(C)OC34[C@H](OC(=O)C(C)C)[C@@]3(O)[C@@H](OC(=O)C5(C)OC5C)[C@@]5(C)C[C@]3(O)[C@@](C)([C@H]5CC(=O)OC)C14O2 (stereo partly specified) : 0.996
21) COc1ccc(-c2coc3cc(O)ccc3c2=O)c(O)c1O : 0.991
22) O=S(=O)(O)c1cc(N=C=S)ccc1/C=C/c1ccc(N=C=S)cc1S(=O)(=O)O : 1.03
23) CCN(CC)C(=O)N1CCN(C)CC1 : 0.949
24) CCCCCCCCCCCCCc1ccco1 : 0.989
25) O=C(Oc1cc(O)cc2c1C[C@@H](OC(=O)c1cc(O)c(O)c(O)c1)[C@@H](c1cc(O)c(O)c(O)c1)O2)c1cc(O)c(O)c(O)c1 : 1.01
26) O=C(Oc1cc(OC(=O)c2ccccc2)c2c(c1)O[C@H](c1ccc(OC(=O)c3ccccc3)c(OC(=O)c3ccccc3)c1)[C@@H](OC(=O)c1ccccc1)C2)c1ccccc1 : 0.996
27) CC(=O)Oc1cc(OC(C)=O)c2c(c1)O[C@H](c1ccc(OC(C)=O)c(OC(C)=O)c1)[C@H](OC(C)=O)C2 : 0.994
28) O=C(O[C@@H]1Cc2c(O)cc(O)cc2O[C@@H]1c1ccc(O)c(O)c1)c1cc(O)c(O)c(O)c1 : 1.02
29) COc1ccc(OC)c(C(O)CNC(=O)CN)c1 (stereo unspecified) : 0.996
30) COc1ccc(-c2coc3cc(O)ccc3c2=O)c(OC)c1 : 1.01
31) C=CCCCCCCCCCCCc1ccco1 : 0.996
32) CC[C@@H](C(=O)C(C)[C@@H](O)[C@H](C)CCc1ccc(C)c(O)c1C(=O)O)C1OC(CC)(C2CC[C@](O)(CC)[C@H](C)O2)C[C@@H]1C (stereo partly specified) : 1.07
33) C#CCCCCCCCCCCCc1ccco1 : 0.993
34) COc1ccc([C@H]2Oc3c(I)c(OC)cc(OC)c3C[C@@H]2O)cc1OC : 1.01
35) CCOC(=O)n1ccn(C)c1=S : 0.99
36) c1ccc2c(c1)sc1ccccc12 : 0.924

---

- protocolText: chemical genetic growth profiling, strain panel (AID 1159580);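 also: tested at 20 µM; growth read once vehicle control cultures reached saturation at 30 °C; 1 = growth at the plate median or of vehicle wells; lower values mean less growth of the strain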
- testParameters: S. cerevisiae deletion strains, growth OD, locus YNL271C, strain bni1, active compounds read low
About 2,000 (36%) of roughly 5,500 compounds were called active. Inconclusive results (about 18%) are left out. This is one part of the list.
Entries and their normalized growth values follow.
recordedEndpoint: normalized growth

1) O=c1cccc2ccc(O)c(O)c2c1O : 0.97 (inactive)
2) C[C@@H]1CC(Cl)CC[C@H]1C(=O)OC(C)(C)C (some centres undefined) : 0.976 (inactive)
3) C/C=C(\C)C(=O)O[C@H]1C[C@@H](OC(C)=O)[C@@]2(C(=O)OC)CO[C@@H]3C2[C@]12CO[C@](O)(C(=O)OC)[C@H]2[C@](C)(C12O[C@@]1(C)[C@H]1C[C@@H]2OC2OC=C[C@@]21O)[C@@H]3O (some centres undefined) : 0.97 (inactive)
4) COC(=O)c1cc(=O)c(O)c2c(O)c(O)ccc2c1 : 0.731 (active)
5) O=C1C(Cl)=C(Cl)C(=O)C(Cl)=C1Cl : 0.0654 (active)
6) Cn1c(=O)c2c(ncn2CC(O)CO)n(C)c1=O (centres undefined) : 0.973 (inactive)
7) O=C(OCC(O)CO)c1ccccc1Nc1ccnc2cc(Cl)ccc12 (centres undefined) : 0.987 (inactive)
8) CCCCCCC(C)OC(=O)COc1cc(Cl)c(Cl)cc1Cl (centres undefined) : 0.997 (inactive)
9) CC[C@@]1(O)C[C@H](O[C@H]2C[C@H](N(C)C)[C@H](O)[C@H](C)O2)c2c(cc3c(c2O)C(=O)c2c(O)cccc2C3=O)[C@H]1C(=O)OC : 0.916 (active)

Where these numbers come from: PubChem BioAssay AID1159580
